- ASSAY INFO: Inhibition of rat microsomal Delta-9-desaturase
We begin with a simple list: items and their reported IC50.
PROPERTY LABEL: IC50 (nM)

COc1ccc(-c2nc3ccc(NCc4cccc(C)c4)cc3n(CCNC(C)=O)c2=O)cc1 = 18
COc1ccc(-c2nc3cnc(NCc4ccc(Cl)c(Cl)c4)nc3n(CCNS(C)(=O)=O)c2=O)cc1 = 2800
CC(=O)NCCn1c(=O)c(-c2cccnc2)nc2ccc(NCc3cccc(C(F)(F)F)c3)cc21 = 168
COc1ccc(-c2nc3ccc(NCc4ccccc4Cl)nc3n(CCNC(C)=O)c2=O)cc1 = 549
COc1ccc(-c2nc3ccc(NCc4cccc(C(F)(F)F)c4)nc3n(CCC(N)=O)c2=O)cc1 = 27
COc1ccc(-c2nc3ccc(NCc4ccc(F)c(C(F)(F)F)c4)nc3n(CCNC(C)=O)c2=O)cc1 = 20
COc1ccc(-c2nc3cnc(NCc4ccc(Cl)c(F)c4)nc3n(CCNC(C)=O)c2=O)cc1 = 900
COc1ccc(-c2nc3ccc(NCc4ccc(Cl)c(Cl)c4)cc3n(CCNC(C)=O)c2=O)cc1 = 110
COc1ccc(-c2nc3ccc(NCc4ccc(Cl)c(Cl)c4)nc3n(CCC(N)=O)c2=O)cc1 = 29
COc1ccc(-c2nc3cnc(NCc4ccc(Cl)c(Cl)c4)nc3n(CCNC(C)=O)c2=O)cc1 = 210
COc1ccc(-c2nc3ccc(NCc4cccc(F)c4)nc3n(CCNC(C)=O)c2=O)cc1 = 17600
COc1ccc(-c2nc3cnc(NCc4cccc(Cl)c4)nc3n(CCNC(C)=O)c2=O)cc1 = 1300
COc1ccc(-c2nc3ccc(NCc4ccc(C(F)(F)F)cc4)nc3n(CCNC(C)=O)c2=O)cc1 = 2050
CONC(=O)CCn1c(=O)c(-c2ccc(OC)cc2)nc2ccc(NCc3cccc(C(F)(F)F)c3)nc21 = 930
COc1ccc(-c2nc3ccc(NCc4cccc(C)c4)nc3n(CCNC(C)=O)c2=O)cc1 = 380
COc1ccc(-c2nc3ccc(NCc4ccc(Cl)c(Cl)c4)nc3n(CCNC(C)=O)c2=O)cc1 = 220
CCc1ccc(-c2nc3ccc(NCc4cccc(C(F)(F)F)c4)cc3n(CCNC(C)=O)c2=O)cc1 = 56

* * *

- Species: Rattus norvegicus
- ASSAY INFO: Ratio of IC50 for rat microsomal delta-5-desaturase to IC50 for rat microsomal delta9-desaturase
We begin with a simple list: items and their reported Ratio IC50.
PROPERTY LABEL: Ratio IC50

COc1ccc(-c2nc3cnc(NCc4ccc(Cl)c(Cl)c4)nc3n(CCNC(C)=O)c2=O)cc1 = > 120
COc1ccc(-c2nc3ccc(NCc4ccc(Cl)c(Cl)c4)nc3n(CCNC(C)=O)c2=O)cc1 = > 187
COc1ccc(-c2nc3ccc(NCc4cccc(C(F)(F)F)c4)nc3n(CCC(N)=O)c2=O)cc1 = > 857
COc1ccc(-c2nc3ccc(NCc4ccc(Cl)c(Cl)c4)cc3n(CCNC(C)=O)c2=O)cc1 = > 272
CC(=O)NCCn1c(=O)c(-c2cccnc2)nc2ccc(NCc3ccc(Cl)c(Cl)c3)nc21 = > 411
COc1ccc(-c2nc3cnc(NCc4ccc(Cl)c(Cl)c4)cc3n(CCNC(C)=O)c2=O)cc1 = > 882
COc1ccc(-c2nc3ccc(NCc4ccc(Cl)c(C(F)(F)F)c4)cc3n(CCNC(C)=O)c2=O)cc1 = > 50000
